# Measured Target: T1, mouse TNFR1 on L929 cells (mouse, UniProt P25118 30-454)
# T1 sequence (looked up): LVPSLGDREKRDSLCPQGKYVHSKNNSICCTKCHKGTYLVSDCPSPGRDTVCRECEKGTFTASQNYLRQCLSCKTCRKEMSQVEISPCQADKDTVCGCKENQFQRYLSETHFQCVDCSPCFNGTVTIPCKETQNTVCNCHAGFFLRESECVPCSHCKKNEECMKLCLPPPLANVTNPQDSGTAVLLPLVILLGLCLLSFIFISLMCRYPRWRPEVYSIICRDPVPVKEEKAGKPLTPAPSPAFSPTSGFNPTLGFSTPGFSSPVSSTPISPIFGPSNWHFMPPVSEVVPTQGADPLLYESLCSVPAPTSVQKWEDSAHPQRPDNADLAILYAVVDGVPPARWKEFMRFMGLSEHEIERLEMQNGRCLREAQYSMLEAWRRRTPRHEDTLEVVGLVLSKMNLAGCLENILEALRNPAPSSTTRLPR
# Assay Remarks: cell-based or functional assay
Hi! Could you tag entries with Mouse L929 ND50 below 50 nM as Satisfied, and those at or above as Not satisfied? Much appreciated.

Solved entries (count: 4):
>  <Binder>
DOM1h-574-162 (other, VH dAb) VH: EVQLLESGGGLVQPGGSLRLSCAASGFTFFKYSMGWVRQAPGKGLEWVSQISDTADRTYYSHSVKGRFTISRDNSKNTLYLQMNSLRAEDTAVYYCAIYTGRWVPFEYWGQGTLVTVSS

>  <Label Value>
Satisfied

$$$$
>  <Binder>
DOM1h-574-155 (other, VH dAb) VH: EVQLLESGGGLVQPGGSLRLSCAASGFTFLKYSMGWVRQAPGKGLEWVSQISDTADRTYYAHSVKGRFTISRDNSKNTLYLQMNSLRAEDTAVYYCAIYTGRWVPFEYWGQGTLVTVSS

>  <Label Value>
Not satisfied

$$$$
>  <Binder>
DOM1h-574-135 (other, VH dAb) VH: EVQLLESGGGLVQPGGSLRLSCAASGFTFVKYSMGWVRQAPGKGLEWVSQISDTADRTYYTHSVKGRFTISRDNSKNTLYLQMNSLRAEDTAVYYCAIYTGRWVPFEYWGQGTLVTVSS

>  <Label Value>
Satisfied

$$$$
>  <Binder>
DOM1h-574-72 (other, VH dAb; expressed in E. coli, purified on Protein A) VH: EVQLLESGGGLVQPGGSLRLSCAASGFTFVKYSMGWVRQAPGKGLEWVSQISNTADRTYYAHSVKGRFTISRDNSKNTLYLQMNSLRAEDTAVYYCAIYTGRWVPFEYWGQGTLVTVSS

>  <Label Value>
Satisfied

$$$$

As a next step, examine the binder that follows.
Please check: Mouse L929 ND50 for DOM1h-574-156 (other, VH dAb) VH: EVQLLESGGGLVQPGGSLRLSCAASGFTFFKYSMGWVRQAPGKGLEWVSQISDTADRTYYAHSVKGRFTISRDNSKNTLYLQMNSLRAEDTAVYYCAIYTGRWVPFEYWGQGTLVTVSS , strictly under 50 nM or not?
Satisfied
